Test system: MCF7
protocol-text: percentage of EdU-negative (G0-arrested) nuclei per well, 72 h; higher = more G0 arrest;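 further: secreted proteins added to cultured cells, EdU pulse at the end, nuclei found by Hoechst imaging, EdU status from nuclear versus surrounding ring intensity ratio, PBS as neutral control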
test-context: protein concentration 0.0225 µM; reference: sequence is the full UniProt precursor, the tested protein was the secreted form or ectodomain
measure-name: percentage of EdU-negative (%)
Give bare numbers, in %.

- polymer-sequence: "MPGRSCVALVLLAAAVSCAVAQHAPPWTEDCRKSTYPPSGPTYRGAVPWYTINLDLPPYKRWHELMLDKAPVLKVIVNSLKNMINTFVPSGKIMQVVDEKLPGLLGNFPGPFEEEMKGIAAVTDIPLGEIISFNIFYELFTICTSIVAEDKKGHLIHGRNMDFGVFLGWNINNDTWVITEQLKPLTVNLDFQRNNKTVFKASSFAGYVGMLTGFKPGLFSLTLNERFSINGGYLGILEWILGKKDVMWIGFLTRTVLENSTSYEEAKNLLTKTKILAPAYFILGGNQSGEGCVITRDRKESLDVYELDAKQGRWYVVQTNYDRWKHPFFLDDRRTPAKMCLNRTSQENISFETMYDVLSTKPVLNKLTVYTTLIDVTKGQFETYLRDCPDPCIGW"
  assay-target: "MCF7"
  measure-name: "percentage of EdU-negative"
  unit-info: "%"
  recorded-value: 26.7

Value of percentage of EdU-negative reported for the sequence MMRCCRRRCCCRQPPHALRPLLLLPLVLLPPLAAAAAGPNRCDTIYQGFAECLIRLGDSMGRGGELETICRSWNDFHACASQVLSGCPEEAAAVWESLQQEARQAPRPNNLHTLCGAPVHVRERGTGSETNQETLRATAPALPMAPAPPLLAAALALAYLLRPLA [Q496H8] is 24.2

---

Provide the reported percentage of EdU-negative of each item.
Test system: hTERT-HMEC
protocol-text: percentage of EdU-negative (G0-arrested) nuclei per well, 72 h; higher = more G0 arrest
test-context: protein concentration 0.03125 µM; reference: sequence is the full UniProt precursor, the tested protein was the secreted form or ectodomain
One number for each entry, in %.

- polymer-sequence: "MFHVSFRYIFGLPPLILVLLPVASSDCDIEGKDGKQYESVLMVSIDQLLDSMKEIGSNCLNNEFNFFKRHICDANKEGMFLFRAARKLRQFLKMNSTGDFDLHLLKVSEGTTILLNCTGQVKGRKPAALGEAQPTKSLEENKSLKEQKKLNDLCFLKRLLQEIKTCWNKILMGTKEH"
  assay-target: "hTERT-HMEC"
  percentage of EdU-negative (%): 5.03
- polymer-sequence: "MTDRQTDTAPSPSYHLLPGRRRTVDAAASRGQGPEPAPGGGVEGVGARGVALKLFVQLLGCSRFGGAVVRAGEAEPSGAARSASSGREEPQPEEGEEEEEKEEERGPQWRLGARKPGSWTGEAAVCADSAPAARAPQALARASGRGGRVARRGAEESGPPHSPSRRGSASRAGPGRASETMNFLLSWVHWSLALLLYLHHAKWSQAAPMAEGGGQNHHEVVKFMDVYQRSYCHPIETLVDIFQEYPDEIEYIFKPSCVPLMRCGGCCNDEGLECVPTEESNITMQIMRIKPHQGQHIGEMSFLQHNKCECRPKKDRARQEKKSVRGKGKGQKRKRKKSRYKSWSVPCGPCSERRKHLFVQDPQTCKCSCKNTDSRCKARQLELNERTCRCDKPRR"
  assay-target: "hTERT-HMEC"
  percentage of EdU-negative (%): 5.12
- polymer-sequence: "MRIWWLLLAIEICTGNINSQDTCRQGHPGIPGNPGHNGLPGRDGRDGAKGDKGDAGEPGRPGSPGKDGTSGEKGERGADGKVEAKGIKGDQGSRGSPGKHGPKGLAGPMGEKGLRGETGPQGQKGNKGDVGPTGPEGPRGNIGPLGPTGLPGPMGPIGKPGPKGEAGPTGPQGEPGVRGIRGWKGDRGEKGKIGETLVLPKSAFTVGLTVLSKFPSSDMPIKFDKILYNEFNHYDTAAGKFTCHIAGVYYFTYHITVFSRNVQVSLVKNGVKILHTKDAYMSSEDQASGGIVLQLKLGDEVWLQVTGGERFNGLFADEDDDTTFTGFLLFSSP [P0C862]"
  assay-target: "hTERT-HMEC"
  percentage of EdU-negative (%): 5.3
- polymer-sequence: "MSSAAGFCASRPGLLFLGLLLLPLVVAFASAEAEEDGDLQCLCVKTTSQVRPRHITSLEVIKAGPHCPTAQLIATLKNGRKICLDLQAPLYKKIIKKLLES"
  assay-target: "hTERT-HMEC"
  percentage of EdU-negative (%): 5.71
- polymer-sequence: "MWKRWLALALALVAVAWVRAEEELRSKSKICANVFCGAGRECAVTEKGEPTCLCIEQCKPHKRPVCGSNGKTYLNHCELHRDACLTGSKIQVDYDGHCKEKKSVSPSASPVVCYQSNRDELRRRIIQWLEAEIIPDGWFSKGSNYSEILDKYFKNFDNGDSRLDSSEFLKFVEQNETAINITTYPDQENNKLLRGLCVDALIELSDENADWKLSFQEFLKCLNPSFNPPEKKCALEDETYADGAETEVDCNRCVCACGNWVCTAMTCDGKNQKGAQTQTEEEMTRYVQELQKHQETAEKTKRVSTKEI"
  assay-target: "hTERT-HMEC"
  percentage of EdU-negative (%): 4.68

# per-item lookup of percentage of EdU-negative; items listed below
1. MAPARAGFCPLLLLLLLGLWVAEIPVSAKPKGMTSSQWFKIQHMQPSPQACNSAMKNINKHTKRCKDLNTFLHEPFSSVAATCQTPKIACKNGDKNCHQSHGAVSLTMCKLTSGKHPNCRYKEKRQNKSYVVACKPPQKKDSQQFHLVPVHLDRVL [Q9H1E1]
2. MPWPLLLLLAVSGAQTTRPCFPGCQCEVETFGLFDSFSLTRVDCSGLGPHIMPVPIPLDTAHLDLSSNRLEMVNESVLAGPGYTTLAGLDLSHNLLTSISPTAFSRLRYLESLDLSHNGLTALPAESFTSSPLSDVNLSHNQLREVSVSAFTTHSQGRALHVDLSHNLIHRLVPHPTRAGLPAPTIQSLNLAWNRLHAVPNLRDLPLRYLSLDGNPLAVIGPGAFAGLGGLTHLSLASLQRLPELAPSGFRELPGLQVLDLSGNPKLNWAGAEVFSGLSSLQELDLSGTNLVPLPEALLLHLPALQSVSVGQDVRCRRLVREGTYPRRPGSSPKVALHCVDTRDSAARGPTIL [Q8WUA8]
3. MAKVFSFILVTTALTMGREISALEDCAQEQMRLRAQVRLLETRVKQQQVKIKQLLQENEVQFLDKGDENTVIDLGSKRQYADCSEIFNDGYKLSGFYKIKPLQSPAEFSVYCDMSDGGGWTVIQRRSDGSENFNRGWKDYENGFGNFVQKHGEYWLGNKNLHFLTTQEDYTLKIDLADFEKNSRYAQYKNFKVGDEKNFYELNIGEYSGTAGDSLAGNFHPEVQWWASHQRMKFSTWDRDHDNYEGNCAEEDQSGWWFNRCHSANLNGVYYSGPYTAKTDNGIVWYTWHGWWYSLKSVVMKIRPNDFIPNVI
4. MNCVCRLVLVVLSLWPDTAVAPGPPPGPPRVSPDPRAELDSTVLLTRSLLADTRQLAAQLRDKFPADGDHNLDSLPTLAMSAGALGALQLPGVLTRLRADLLSYLRHVQWLRRAGGSSLKTLEPELGTLQARLDRLLRRLQLLMSRLALPQPPPDPPAPPLAPPSSAWGGIRAAHAILGGLHLTLDWAVRGLLLLKTRL
5. MVKQIESKTAFQEALDAAGDKLVVVDFSATWCGPCKMIKPFFHSLSEKYSNVIFLEVDVDDCQDVASECEVKCMPTFQFFKKGQKVGEFSGANKEKLEATINELV

[4.51, 5.33, 6.18, 4.51, 4.86]

# per-item lookup of percentage of EdU-negative; items listed below
1. MQRLCVYVLIFALALAAFSEASWKPRSQQPDAPLGTGANRDLELPWLEQQGPASHHRRQLGPQGPPHLVADPSKKQGPWLEEEEEAYGWMDFGRRSAEDEN
2. MALSFSLLMAVLVLSYKSICSLGCDLPQTHSLGNRRALILLAQMGRISPFSCLKDRHDFGFPQEEFDGNQFQKAQAISVLHEMIQQTFNLFSTKDSSATWEQSLLEKFSTELNQQLNDLEACVIQEVGVEETPLMNVDSILAVKKYFQRITLYLTEKKYSPCAWEVVRAEIMRSFSLSKIFQERLRRKE

1. 4.9
2. 15.2
